target_system: B. pahangi Hsp90 (Brugia pahangi, UniProt O61998)
Construct: Adult worms of B. pahangi were obtained from infected jirds; from tissue; host or cells: whole adult B. pahangi worms, ground and lysed in HFB buffer
assay_remarks: Competition FP assay (displacement of Cy3B-GA), B. pahangi lysate
Format: binding
endpoint: pIC50
Recall that pIC50 is obtained by taking minus log10 of the concentration measured in molar.

Guide cases for pIC50, answers given:
| smiles_code | target_system | endpoint | value_reported |
| --- | --- | --- | --- |
| CCNC(=O)c1cc2c(-c3cc(OCCN4CCCC4)c(Cl)cc3Cl)nc(N)nc2s1 | B. pahangi Hsp90 (Brugia pahangi, UniProt O61998) | pIC50 | 8.16 |
| CC1(C)CC(=O)c2c(C(F)(F)F)nn(-c3ccc(C(N)=O)c(N[C@H]4CC[C@H](O)CC4)c3)c2C1 | B. pahangi Hsp90 (Brugia pahangi, UniProt O61998) | pIC50 | 7.82 |

Now look at this entry.
Which measured pIC50 belongs to `COc1c(C)cnc(Cn2cnc3c(Cl)nc(N)nc32)c1C` , tested on B. pahangi Hsp90 (Brugia pahangi, UniProt O61998)?
7.80

###

Tested on: B. pahangi Mf (microfilariae)
assay_remarks: Mf viability in vitro
Type: cell-based, Brugia pahangi
measurement_parameters: Brugia pahangi, 168 h, read-out: EC50 against Mf viability
pEC50: −log10 of the molar value.
endpoint: pEC50

Reported pEC50, compound `CCNC(=O)c1cc2c(-c3cc(OCCN4CCCC4)c(Cl)cc3Cl)nc(N)nc2s1` : ____
~6.60

###

Reported IC50 by item:
target_system: B. pahangi Hsp90 (Brugia pahangi, UniProt O61998)
Construct: Adult worms of B. pahangi were obtained from infected jirds; from tissue; host or cells: whole adult B. pahangi worms, ground and lysed in HFB buffer
assay_remarks: Competition FP assay (displacement of Cy3B-GA), B. pahangi lysate
Format: binding
measurement_parameters: FP assay; best fit (95% confidence intervals); read-out: B. pahangi IC50
Reply with just the number (in nM).

Guide cases for IC50, answers given:
| smiles_code | unit_string | value_reported |
| --- | --- | --- |
| CCc1cc(-c2n[nH]c(C)c2-c2ccc3c(c2)OCCO3)c(O)cc1O | nM | 240 |
| Oc1cc(O)c(-c2noc3ccc(NCCN4CCOCC4)cc23)cc1Cl | nM | 1.6 |
| CC1(C)CC(=O)c2c(C(F)(F)F)nn(-c3ccc(C(N)=O)c(N[C@H]4CCC[C@@H]4O)c3)c2C1 | nM | 10 |

Reported IC50, compound `C=CCNC1=C2C[C@@H](C)C[C@H](OC)[C@H](O)[C@@H](C)/C=C(\C)[C@H](OC(N)=O)[C@@H](OC)/C=C\C=C(/C)C(=O)NC(=CC1=O)C2=O` : ____
8

Try this compound too: `CCNC(=O)c1noc(-c2cc(C(C)C)c(O)cc2O)c1-c1ccc(CN2CCOCC2)cc1`
0.64

Try this compound too: `CC(C)NCCCn1c(Sc2cc3c(cc2I)OCO3)nc2c(N)ncnc21`
17

Try this compound too: `CCNC(=O)c1[nH]nc(-c2cc(Cl)c(O)cc2O)c1-c1ccc(OC)cc1`
11

Try this compound too: `CCNC(=O)c1noc(-c2cc(Cl)c(O)cc2O)c1-c1ccc(OC)cc1`
0.54

###

target_system: B. malayi Hsp90 (Brugia malayi)
assay_remarks: Competition FP assay (displacement of Cy3B-GA), B. malayi lysate
Type: binding
measurement_parameters: best fit (95% confidence intervals), read-out: B. malayi IC50
Procedure: The FP assay was set up essentially as described previously, [25]. […] The equilibrium binding of Cy3B-GA and recombinant human Hsp90α (Enzo Life Sciences, Farmingdale, NY USA) or parasite lysate was determined by creating a two-fold dilution series of protein/extract for an eleven-point curve with the first column containing no protein. […] Equilibrium binding constants were determined by nonlinear regression using a one-site binding model (GraphPad Prism software). […]
Reported pIC50 by item:
Recall that pIC50 is obtained by taking minus log10 of the concentration measured in molar.

Guide cases for pIC50, answers given:
| smiles_code | pIC50 |
| --- | --- |
| CCNC(=O)c1noc(-c2cc(Cl)c(O)cc2O)c1-c1ccc(OC)cc1 | 8.92 |
| CC(C)NCCCn1c(Sc2cc3c(cc2I)OCO3)nc2c(N)ncnc21 | 7.57 |
| Oc1cc(O)c(-c2noc3ccc(NCCN4CCOCC4)cc23)cc1Cl | 7.80 |
| C=CCNC1=C2C[C@@H](C)C[C@H](OC)[C@H](O)[C@@H](C)/C=C(\C)[C@H](OC(N)=O)[C@@H](OC)/C=C\C=C(/C)C(=O)NC(=CC1=O)C2=O | 8.60 |
| CCNC(=O)c1noc(-c2cc(C(C)C)c(O)cc2O)c1-c1ccc(CN2CCOCC2)cc1 | 9.02 |
| CCc1cc(-c2n[nH]c(C)c2-c2ccc3c(c2)OCCO3)c(O)cc1O | 6.48 |
| CC1(C)CC(=O)c2c(C(F)(F)F)nn(-c3ccc(C(N)=O)c(N[C@H]4CCC[C@@H]4O)c3)c2C1 | 7.96 |

Now look at this entry.
Reported pIC50, molecule `CCNC(=O)c1[nH]nc(-c2cc(Cl)c(O)cc2O)c1-c1ccc(OC)cc1` : ____
7.85

###

target_system: UniProtKB A0A0H5S7Y7
assay_remarks: Competition FP assay (displacement of Cy3B-GA), B. malayi lysate
Assay type: binding
measurement_parameters: read-out: B. malayi IC50, best fit (95% confidence intervals)
endpoint: IC50
Record the result as number plus unit.

Guide cases for IC50, answers given:
| smiles_code | IC50 |
| --- | --- |
| COc1c(C)cnc(Cn2cnc3c(Cl)nc(N)nc32)c1C | 14 nM |
| COC1=C2C[C@@H](C)C[C@H](OC)[C@H](O)[C@@H](C)/C=C(\C)[C@H](OC(N)=O)[C@@H](OC)/C=C\C=C(/C)C(=O)NC(=CC1=O)C2=O | 12 nM |
| CC1(C)CC(=O)c2c(C(F)(F)F)nn(-c3ccc(C(N)=O)c(N[C@H]4CC[C@H](O)CC4)c3)c2C1 | 20 nM |

Now look at this entry.
Which measured IC50 belongs to `CCNC(=O)c1cc2c(-c3cc(OCCN4CCCC4)c(Cl)cc3Cl)nc(N)nc2s1` , tested on UniProtKB A0A0H5S7Y7?
8.7 nM
